Measured on: T1, hFc-tagged human 4-1BB extracellular domain protein (4-1BB-hFc) (human, UniProt Q07011 24-186, limits assumed)
T1 construct: also called immunogen A; 4-1BB^ECD-hFc; not shown: human IgG Fc fragment (hFc) of the pCpC vector
Assay details: ELISA, coated human 4-1BB-hFc; Ab 0.0006 ug/ml
Reported metric: OD450 nm (OD450 nm)
Write the number in OD450 nm without appending the unit.

Some solved entries appear below for comparison.
11H10C9 (antibody, V domains shown) VH: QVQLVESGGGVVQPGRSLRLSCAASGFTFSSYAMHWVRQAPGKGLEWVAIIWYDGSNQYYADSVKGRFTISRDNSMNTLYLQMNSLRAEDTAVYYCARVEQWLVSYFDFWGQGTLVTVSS VL: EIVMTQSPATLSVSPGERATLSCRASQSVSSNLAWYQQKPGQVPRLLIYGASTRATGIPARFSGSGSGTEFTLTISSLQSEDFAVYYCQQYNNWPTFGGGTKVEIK = 0.19
52F4G2 (antibody, V domains shown) VH: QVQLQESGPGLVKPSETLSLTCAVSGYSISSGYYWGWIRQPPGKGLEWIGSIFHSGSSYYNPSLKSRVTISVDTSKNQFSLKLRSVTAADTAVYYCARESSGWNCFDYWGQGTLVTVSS VL: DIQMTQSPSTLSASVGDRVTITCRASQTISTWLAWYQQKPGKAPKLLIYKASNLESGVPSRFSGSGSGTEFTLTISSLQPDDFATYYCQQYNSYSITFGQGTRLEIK = 0.34

As a next step, examine the binder that follows.
INPUT: Bench note: what OD450 nm did 170D7F2 (antibody, V domains shown) VH: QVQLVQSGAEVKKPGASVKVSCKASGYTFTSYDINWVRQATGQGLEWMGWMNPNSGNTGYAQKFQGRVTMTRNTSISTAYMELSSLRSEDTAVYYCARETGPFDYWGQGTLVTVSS VL: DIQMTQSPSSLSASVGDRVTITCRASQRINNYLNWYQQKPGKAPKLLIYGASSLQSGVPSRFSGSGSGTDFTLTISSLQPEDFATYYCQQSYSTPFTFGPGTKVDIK show?
OUTPUT: 0.19
